Just for reference, patent US12590062B2 is where these values come from.

# system: PD-L1 (Homo sapiens)
# Construct: determine if they can specifically dimerize the extracellular domains of PD-L1
# protocolDetails: PD-L1/PD-L1 dimerization biochemical protein-protein interaction assay (ALPHA)
# Assay type: binding
# runParameters: compound-induced PD-L1 dimerization, head prints '1 nM' (0.5 nM His-tagged PD-L1 and 0.5 nM FLAG-tagged PD-L1), read-out: AC50 PDL1 Dimer Alpha 1 nM
Reported AC50 by item:
quantityMeasured: AC50 (nM)

INSERT INTO results (compound, unitsofmeasure, observed) VALUES
  ('COc1nc(O[C@H]2CCc3c(-c4cccc(-c5ccc(CNC[C@@H]6CCC(=O)N6)cc5)c4Cl)cccc32)c(Cl)cc1CN1CCC[C@H](C(=O)O)C1 [Example 719]', 'nM', 32.7),
  ('Cc1c(COc2cc(OCc3cncc(C#N)c3)c(CN[C@@](C)(CO)C(=O)O)cc2Cl)cccc1-c1cccc(-c2ccc3c(c2)CCC3N(C)CCO)c1C (some centres unmarked) [Example 375]', 'nM', 173),
  ('Cc1c(COc2cc(OCc3cncc(C#N)c3)c(CNC[C@@H](O)CC(=O)O)cc2Cl)cccc1-c1cccc(-c2cn(C3CCNCC3)nn2)c1C [Example 330]', 'nM', 209),
  ('Cc1c(COc2cc(OCc3cncc(C#N)c3)c(CNC[C@@H](O)CC(=O)O)cc2Cl)cccc1-c1cccc(-c2ccc3c(CCNC[C@@H](O)CC(=O)O)coc3c2)c1C [Example 348]', 'nM', 80.4),
  ('Cc1c(COc2nc(OCc3cccnc3)c(CNC[C@@H](O)CC(=O)O)cc2Br)cccc1-c1cccc(COc2nc(OCc3cccnc3)c(CNC[C@@H](O)CC(=O)O)cc2Br)c1C [Example 137]', 'nM', 195);

====

# system: PD-1/PD-L1 interaction (Homo sapiens, UniProt Q9NZQ7)
# Construct: expressed in transfected cells; host or cells: CHO cells (aAPC-PD-L1) co-cultured with Jurkat cells overexpressing PD-1 and an NFAT-luciferase reporter
# Sequence (Q9NZQ7 19-290): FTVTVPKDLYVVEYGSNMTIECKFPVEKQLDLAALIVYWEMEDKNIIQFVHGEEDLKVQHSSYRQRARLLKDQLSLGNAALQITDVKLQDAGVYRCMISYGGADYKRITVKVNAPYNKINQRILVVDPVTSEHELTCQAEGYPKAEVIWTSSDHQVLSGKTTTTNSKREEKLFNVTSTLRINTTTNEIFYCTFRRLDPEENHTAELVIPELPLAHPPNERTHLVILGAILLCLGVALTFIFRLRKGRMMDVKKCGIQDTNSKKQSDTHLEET
# protocolDetails: PD-1/PD-L1 NFAT reporter co-culture assay
# Assay type: cell-based
# runParameters: Jurkat PD-1 NFAT-luciferase cells co-cultured with aAPC-PD-L1 CHO cells, 6 hrs at 37° C.; read-out: EC50 NFAT Luciferase
pEC50: −log10 of the molar value.
Reported pEC50 by item:
quantityMeasured: pEC50

INSERT INTO measurements (structureassmiles, system, quantitymeasured, observed) VALUES
  ('CC(=O)NCCNCc1cc(Cl)c(OCc2cccc(-c3cccc(COc4cc(OCc5cncc(C#N)c5)c(CNCCNC(C)=O)cc4Cl)c3C)c2C)cc1OCc1cncc(C#N)c1', 'PD-1/PD-L1 interaction (Homo sapiens, UniProt Q9NZQ7)', 'pEC50', 6.04),
  ('COc1nc(OCc2cccc(-c3cccc(COc4nc(OC)c(CNC56CC(C(=O)O)(C5)C6)cc4Cl)c3C)c2C)c(Cl)cc1CNC12CC(C(=O)O)(C1)C2', 'PD-1/PD-L1 interaction (Homo sapiens, UniProt Q9NZQ7)', 'pEC50', 5.01),
  ('COc1nc(OCc2cccc(-c3cccc(COc4nc(OC)c(CN[C@](C)(CO)C(=O)O)cc4C4CC4)c3C)c2C)c(C2CC2)cc1CN[C@](C)(CO)C(=O)O', 'PD-1/PD-L1 interaction (Homo sapiens, UniProt Q9NZQ7)', 'pEC50', 5.01);

====

Reported pIC50 by item:
# system: PD-1/PD-L1 (Homo sapiens)
# protocolDetails: PD-1/PD-L1 biochemical protein-protein interaction assay (ALPHA)
# Format: binding
# runParameters: 0.3 nM His tagged PD-L1, 2.5 nM biotinylated Fc-PD-1, 60 minutes at 25° C., read-out: IC50 PD-L1-PD-1 Alpha IC50-mono PD-L1-fcP-D1
pIC50: −log10 of the molar value.
quantityMeasured: pIC50

INSERT INTO assay_data (compound, quantitymeasured, observed) VALUES
  ('Cc1c(COc2cc(OCc3cncc(C#N)c3)c(CNC[C@@H](O)CC(=O)O)cc2Cl)cccc1-c1cccc(-c2ccc(CN(C)C)cc2)c1C [Example 383]', 'pIC50', 9.60),
  ('COc1nc(-c2cccc(-c3cccc4c3CC[C@@H]4Oc3nc(OC)c(CN4CC(C(=O)O)C4)cc3Cl)c2Cl)ccc1CN1CC2(CCC(=O)N2)C1 [Example 713]', 'pIC50', 10.19),
  ('COc1nc(O[C@H]2CCc3c(-c4cccc(-c5ccc(CN6CC7(C6)CN(C(C)=O)C7)cc5)c4Cl)cccc32)c(Cl)cc1CN1CC[C@@H](C(=O)O)C1 [Example 771]', 'pIC50', 10.19);

====

# system: PD-1/PD-L1 interaction (Homo sapiens, UniProt Q9NZQ7)
# Construct: expressed in transfected cells; host or cells: CHO cells (aAPC-PD-L1) co-cultured with Jurkat cells overexpressing PD-1 and an NFAT-luciferase reporter
# protocolDetails: PD-1/PD-L1 NFAT reporter co-culture assay
# Assay type: cell-based
# runParameters: Jurkat PD-1 NFAT-luciferase cells co-cultured with aAPC-PD-L1 CHO cells, 6 hrs at 37° C.; read-out: EC50 NFAT Luciferase
pEC50: −log10 of the molar value.
Threshold rule: pEC50 greater than or equal to 6 is fulfilled; below that, not fulfilled.

INSERT INTO assay_data (molecule, assignedcategory) VALUES
  ('Cc1c(COc2cc(OCc3cncc(C#N)c3)c(CNC[C@@H](O)CC(=O)O)cc2Cl)cccc1-c1cccc(-c2ccc3c(CNC[C@H]4CCC(=O)N4)ccnc3c2)c1C', 'fulfilled'),
  ('N#Cc1cncc(COc2nc(O[C@H]3CCc4c(-c5cccc(-c6ccc(OCCNCCO)cc6)c5Cl)cccc43)c(Cl)cc2CNC[C@@H](O)CC(=O)O)c1', 'fulfilled'),
  ('Cc1c(COc2nc(OCc3cncc(C#N)c3)c(CNCCO)cc2Cl)cccc1-c1cccc(-c2ccc(C(O)CN(C)C)cc2)c1C (stereo not drawn)', 'fulfilled'),
  ('COc1cc(OCc2cccc(-c3cccc(COc4ccc(CNC[C@@H](O)CC(=O)O)c(OC)n4)c3C)c2C)ccc1CNC[C@@H](O)CC(=O)O', 'not fulfilled');

====

# system: PD-1/PD-L1 interaction (Homo sapiens, UniProt Q9NZQ7)
# Construct: expressed in transfected cells; host or cells: CHO cells (aAPC-PD-L1) co-cultured with Jurkat cells overexpressing PD-1 and an NFAT-luciferase reporter
# protocolDetails: PD-1/PD-L1 NFAT reporter co-culture assay
# Format: cell-based
# runParameters: Jurkat PD-1 NFAT-luciferase cells co-cultured with aAPC-PD-L1 CHO cells, 6 hrs at 37° C.; read-out: EC50 NFAT Luciferase
Reported EC50 by item:
quantityMeasured: EC50 (nM)

INSERT INTO results (compound, system, observed) VALUES
  ('COc1nc(OCc2cccc(-c3cccc(COc4nc(OC)c(C(CC(=O)O)N(C)C)cc4Cl)c3C)c2C)c(Cl)cc1C(CC(=O)O)N(C)C (mixture of isomers) [Example 236]', 'PD-1/PD-L1 interaction (Homo sapiens, UniProt Q9NZQ7)', 5030),
  ('COc1nc(OCc2cccc(-c3cccc(COc4nc(OC)c(CN[C@H]5CCC[C@@H]5O)cc4Cl)c3C)c2C)c(Cl)cc1CN[C@H]1CCC[C@@H]1O [Example 230]', 'PD-1/PD-L1 interaction (Homo sapiens, UniProt Q9NZQ7)', 821),
  ('COc1nc(-c2cccc(-c3cccc4c3CC[C@@H]4Oc3nc(OCc4cncc(C#N)c4)c(CN[C@@](C)(CO)C(=O)O)cc3Cl)c2Br)ccc1C1=NCCN1 [Example 702]', 'PD-1/PD-L1 interaction (Homo sapiens, UniProt Q9NZQ7)', 1310),
  ('COc1nc(-c2csc(-c3cccc(-c4ccc(CNC[C@@H]5CCC(=O)N5)c(OC)n4)c3Cl)c2)ccc1CNC[C@@H]1CCC(=O)N1 [Example 597]', 'PD-1/PD-L1 interaction (Homo sapiens, UniProt Q9NZQ7)', 231),
  ('COc1nc(-c2cc(F)cc(-c3cccc4c3CC[C@@H]4Oc3ccc(CNC[C@@H]4CCC(=O)N4)c(OCc4cncc(C#N)c4)n3)c2Cl)ccc1CNC[C@@H]1CCC(=O)N1 [Example 800]', 'PD-1/PD-L1 interaction (Homo sapiens, UniProt Q9NZQ7)', 246);

====

# system: PD-1/PD-L1 (Homo sapiens, UniProt Q9NZQ7)
# protocolDetails: PD-1/PD-L1 biochemical protein-protein interaction assay (ALPHA)
# runParameters: 0.3 nM His tagged PD-L1, 2.5 nM biotinylated Fc-PD-1, 60 minutes at 25° C., read-out: IC50 PD-L1-PD-1 Alpha IC50-mono PD-L1-fcP-D1
quantityMeasured: IC50 (nM)

INSERT INTO assay_data (structureassmiles, unitsofmeasure, observed) VALUES
  ('Cc1c(COc2cc(OCc3cncc(C#N)c3)c(CNC[C@@H](O)CC(=O)O)cc2Cl)cccc1-c1cccc(OCc2cc(OCc3cncc(C#N)c3)c(CNC[C@@H](O)CC(=O)O)cc2Cl)c1C', 'nM', 0.324),
  ('COc1nc(O[C@H]2CCc3c(-c4cccc(-c5ccc(CNC[C@@H]6CCC(=O)N6)cc5)c4Cl)cccc32)c(Cl)cc1CN1CCC[C@H](C(=O)O)C1', 'nM', 0.064),
  ('COc1nc(-c2cccc(-c3cccc(-c4ccc5c(c4)[C@H](N)CC5)c3Cl)c2Cl)ccc1C1=NCCN1', 'nM', 5.2),
  ('COc1nc(-c2cccc(-c3cccc4c3CC[C@@H]4Oc3nc(OC)c(CN4CC[C@H](C(=O)O)C4)cc3Cl)c2Cl)ccc1CN1CC(O)C1', 'nM', 0.064),
  ('CS(=O)(=O)c1cncc(COc2nc(O[C@H]3CCc4c(-c5cccc6c5CC[C@@H]6Oc5nc(OCc6cncc(S(C)(=O)=O)c6)c(CN6CC[C@@H](O)C6)cc5Cl)cccc43)c(Cl)cc2CN2CC[C@@H](O)C2)c1', 'nM', 0.064),
  ('COc1nc(-c2cccc(-c3cccc(-c4cnn(CCN)c4)c3Cl)c2Cl)ccc1CNC[C@@H]1CCC(=O)N1', 'nM', 0.671),
  ('Cc1c(COc2cc(OCc3cncc(C#N)c3)c(CNC[C@@H](O)CC(=O)O)cc2Cl)cccc1-c1cccc(-c2nc3c(Cl)cc(CNC[C@@H](O)CC(=O)O)cn3n2)c1C', 'nM', 0.064),
  ('COc1nc(O[C@H]2CCc3c(-c4cccc(-c5ccc(CNC[C@@H]6CCC(=O)N6)cc5)c4Cl)cccc32)c(Cl)cc1CN1CCC[C@@H]1C(=O)O', 'nM', 0.064),
  ('COc1cc(-c2cccc(-c3cccc(-c4cnc(C5=NCCN5)c(OC)c4)c3Cl)c2Cl)cnc1C1=NCCN1', 'nM', 0.064),
  ('Cc1c(COc2nc(OCC3CC3)c(CNC[C@@H](O)CC(=O)O)cc2Br)cccc1-c1cccc(COc2nc(OCC3CC3)c(CNC[C@@H](O)CC(=O)O)cc2Br)c1C', 'nM', 3.6),
  ('Cc1c(COc2cc(OCc3cncc(C#N)c3)c(CNC[C@@H](O)CC(=O)O)cc2Cl)cccc1-c1cccc(-c2ccc(OCCNC[C@@H](O)CC(=O)O)cc2)c1Cl', 'nM', 0.064);
